- target: OsSMF1 (Oryza sativa, UniProt Q6ZLB0 1-436)
- Sequence: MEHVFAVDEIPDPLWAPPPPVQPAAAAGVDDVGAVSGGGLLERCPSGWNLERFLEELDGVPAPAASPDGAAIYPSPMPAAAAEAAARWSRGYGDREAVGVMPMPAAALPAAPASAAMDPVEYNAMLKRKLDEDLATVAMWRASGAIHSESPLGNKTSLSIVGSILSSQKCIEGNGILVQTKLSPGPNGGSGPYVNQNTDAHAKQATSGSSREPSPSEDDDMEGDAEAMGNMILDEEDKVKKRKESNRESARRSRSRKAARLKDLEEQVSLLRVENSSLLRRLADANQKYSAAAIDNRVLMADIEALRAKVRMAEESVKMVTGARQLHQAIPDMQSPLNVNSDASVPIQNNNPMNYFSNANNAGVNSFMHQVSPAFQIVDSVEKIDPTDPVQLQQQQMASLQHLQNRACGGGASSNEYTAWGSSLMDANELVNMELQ
- assay.overview: protein-binding microarray (RPBM); PBS, 2% BSA, 51.3 ng/ul salmon testes DNA, 50 uM zinc acetate, 200 nM TF, 25 C, 1 h; high values mean tight binding
- particulars: protein: recombinant; tags: N-terminal polyhistidine and DsRed monomer fusion (pET32a); chain copies: 2; label: CyDye5-dUTP incorporated in the synthesized complementary strand; 3' TTTTT single-stranded linker to array surface; dsDNA, one strand shown
In all, about 39,000 sequences were measured (“fluorescence intensity (a.u.)”: median about 4,300, highest 2% from about 39,000 on). For the sample, the highest values were picked, then their nearest neighbours and some sequences at random.
Reported binding signal values follow for various sequences
reported.metric: binding signal

> print(dat)
                           polymer.sequence  reported.metric                 observed.measurement
1  TTTTAATCCGAGTTTCAGACCACGATGGCCATTTGTTTCGCGGAGTCACCTAGTGCAG   binding signal   3460 fluorescence intensity (a.u.)
2  GCTCGCCTTTTATCGCAGCCAAAGCCATGAAATTTCCCCACGGAGTCACCTAGTGCAG   binding signal  27500 fluorescence intensity (a.u.)
3  AGAAAGCAACATGCTGTCCCGGTGGCACATCCGATTAGTACGGAGTCACCTAGTGCAG   binding signal   3680 fluorescence intensity (a.u.)
4  CACCCTTAAATCATATATGTGGTTTTAATATTTGGGGATGCGGAGTCACCTAGTGCAG   binding signal  33200 fluorescence intensity (a.u.)
5  CAGTTACGCGCCGTGCCTACCCGTGTATCACCGCGATGAGCGGAGTCACCTAGTGCAG   binding signal   3270 fluorescence intensity (a.u.)

---

Reported binding signal values follow for various sequences
- target: OsSMF1 (Oryza sativa, UniProt Q6ZLB0 1-436)
- Sequence: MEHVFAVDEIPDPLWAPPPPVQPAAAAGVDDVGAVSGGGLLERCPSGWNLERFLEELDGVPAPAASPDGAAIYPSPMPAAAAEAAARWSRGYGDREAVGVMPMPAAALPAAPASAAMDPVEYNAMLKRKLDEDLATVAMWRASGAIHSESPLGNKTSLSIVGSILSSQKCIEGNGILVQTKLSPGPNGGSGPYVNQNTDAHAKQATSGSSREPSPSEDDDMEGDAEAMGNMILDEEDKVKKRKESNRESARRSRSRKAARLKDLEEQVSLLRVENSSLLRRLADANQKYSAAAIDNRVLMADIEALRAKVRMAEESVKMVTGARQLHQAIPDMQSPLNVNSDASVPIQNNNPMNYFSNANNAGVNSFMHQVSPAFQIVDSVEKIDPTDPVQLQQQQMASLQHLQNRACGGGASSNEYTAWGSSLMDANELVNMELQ
- assay.overview: protein-binding microarray (RPBM); PBS, 2% BSA, 51.3 ng/ul salmon testes DNA, 50 uM zinc acetate, 200 nM TF, 25 C, 1 h; high values mean tight binding
- particulars: protein: recombinant; tags: N-terminal polyhistidine and DsRed monomer fusion (pET32a); chain copies: 2; label: CyDye5-dUTP incorporated in the synthesized complementary strand; 3' TTTTT single-stranded linker to array surface; dsDNA, one strand shown
Whole data set: some 39,000 sequences, median “fluorescence intensity (a.u.)” near 4,300, cut for the highest 2% near 39,000. This is one part of a sample in which the highest values are shown more often than they occur.
reported.metric: binding signal

> print(dat)
                           polymer.sequence                 observed.measurement
1  CCAAAATCAGATATCTTAGGATTCATATCGATGTCCAACACGGAGTCACCTAGTGCAG  19200 fluorescence intensity (a.u.)
2  ACAAACCGAGGAGGAGGAGGAGGGCCCACCAGCCACCACGCGGAGTCACCTAGTGCAG   3310 fluorescence intensity (a.u.)
3  GCCTTCCGTTCCGCTCCTCTACCGCCGCGTCAAGATTCCCCGGAGTCACCTAGTGCAG   4950 fluorescence intensity (a.u.)
4  CGCTCGACTTCTCTTCTCTCATACACGTGTCATTAAATTTCGGAGTCACCTAGTGCAG   8480 fluorescence intensity (a.u.)
5  TACCTCTTCAGTACAGCTGCAGCTGCTGACTGCTCACTACCGGAGTCACCTAGTGCAG   4340 fluorescence intensity (a.u.)
6  CATTCTCCTTCTCTCTCGTACGGCTAGAGGTTGAAGACGACGGAGTCACCTAGTGCAG   3760 fluorescence intensity (a.u.)
7  TGTTTACGTCCAACGTTTAACCGCTCGTCTTATTTGAAATCGGAGTCACCTAGTGCAG  21000 fluorescence intensity (a.u.)
8  ATCTTAAGCTCCTCATTTCATCTATGATTGGCTTGCTTTACGGAGTCACCTAGTGCAG   3180 fluorescence intensity (a.u.)
9  CCAGTAATCCTCCTCCTGCTGCCTCAGCTCCTCTTCTGTACGGAGTCACCTAGTGCAG  50800 fluorescence intensity (a.u.)
